MEASURED_TARGET: SfurOBP2 (Sogatella furcifera)
Sequence (V5T759 entry or part of it): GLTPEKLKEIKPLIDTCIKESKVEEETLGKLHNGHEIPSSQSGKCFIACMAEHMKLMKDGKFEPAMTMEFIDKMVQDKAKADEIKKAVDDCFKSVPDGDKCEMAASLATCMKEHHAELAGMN
EXPERIMENT: biochemical
Type: binding
CONDITION_SET: ligand concentration 10 (unit not given), replicate column 2 of 3
QUANTITY_MEASURED: Fluorescence competitive binding assay, OBP2 (raw fluorescence reading)
# print the numeric value only

// C=CC(C)(O)CCC=C(C)C (centres unmarked) : Fluorescence competitive binding assay, OBP2 (raw fluorescence reading) value = 18880

// CCCCCCCCCCCCCCCC : Fluorescence competitive binding assay, OBP2 (raw fluorescence reading) value = 12956

// OC1CCCCC1 : Fluorescence competitive binding assay, OBP2 (raw fluorescence reading) value = 16106

// CCCCCCC=CCO : Fluorescence competitive binding assay, OBP2 (raw fluorescence reading) value = 21198

// CCCCCCCCCCCCO : Fluorescence competitive binding assay, OBP2 (raw fluorescence reading) value = 15939
